Measured IC50 by item
- system-under-test: Aurora B/INCENP (Homo sapiens, UniProt Q96GD4)
- Sequence (Q96GD4 whole entry): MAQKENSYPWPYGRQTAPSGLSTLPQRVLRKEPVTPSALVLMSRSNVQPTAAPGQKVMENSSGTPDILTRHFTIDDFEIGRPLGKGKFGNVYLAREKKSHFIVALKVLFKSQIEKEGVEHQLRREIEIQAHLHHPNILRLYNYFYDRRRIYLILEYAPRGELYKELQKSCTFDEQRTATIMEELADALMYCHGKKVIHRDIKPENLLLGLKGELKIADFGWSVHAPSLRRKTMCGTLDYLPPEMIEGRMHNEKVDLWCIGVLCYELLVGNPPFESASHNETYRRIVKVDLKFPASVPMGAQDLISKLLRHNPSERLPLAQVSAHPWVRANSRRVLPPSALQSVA
- Sequence (Q9NQS7 whole entry partner): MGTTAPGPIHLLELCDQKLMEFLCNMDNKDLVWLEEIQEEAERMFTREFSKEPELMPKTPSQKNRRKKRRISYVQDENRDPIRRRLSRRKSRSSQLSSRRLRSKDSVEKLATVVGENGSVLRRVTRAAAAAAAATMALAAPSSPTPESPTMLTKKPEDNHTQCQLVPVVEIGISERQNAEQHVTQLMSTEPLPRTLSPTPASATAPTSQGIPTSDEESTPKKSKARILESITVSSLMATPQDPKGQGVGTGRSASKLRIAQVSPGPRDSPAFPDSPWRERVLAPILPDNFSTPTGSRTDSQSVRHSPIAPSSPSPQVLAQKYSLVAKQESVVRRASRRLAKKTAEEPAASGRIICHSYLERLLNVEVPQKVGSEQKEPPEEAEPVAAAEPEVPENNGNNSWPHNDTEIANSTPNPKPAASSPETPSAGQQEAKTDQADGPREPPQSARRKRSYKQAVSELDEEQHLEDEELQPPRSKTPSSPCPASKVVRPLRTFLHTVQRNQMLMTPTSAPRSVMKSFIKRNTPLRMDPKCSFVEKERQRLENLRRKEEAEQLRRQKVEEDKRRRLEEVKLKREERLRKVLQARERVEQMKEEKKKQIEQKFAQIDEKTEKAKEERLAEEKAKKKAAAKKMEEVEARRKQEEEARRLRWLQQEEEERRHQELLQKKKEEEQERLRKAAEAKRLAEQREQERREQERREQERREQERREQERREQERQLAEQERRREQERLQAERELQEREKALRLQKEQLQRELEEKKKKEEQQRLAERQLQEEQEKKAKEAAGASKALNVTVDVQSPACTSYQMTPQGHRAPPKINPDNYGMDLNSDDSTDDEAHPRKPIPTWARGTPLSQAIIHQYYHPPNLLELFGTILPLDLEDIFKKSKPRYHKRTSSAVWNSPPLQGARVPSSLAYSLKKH
- assay-explanation: Determination of inhibition of AIK: Aurora B/INCENP direct fluorescence polarization (IMAP) assay
- experimental-setup: 10 uM ATP, 0.8 nM Aurora B/INCENP; values given as bins; read-out: IC50 of Exemplified Compounds Against AIK B

// worked examples, IC50 included
* c1ccc(Sc2cccc3[nH]c4ncccc4c23)cc1 [Compound 23, 5-(phenylthio)-9H-pyrido[2,3-b]indole] | > 13 nM
* COc1ccc(-c2cccc(C(=O)NCCO)c2)c2c1[nH]c1ncc(C)cc12 | 8.6 to 13 nM
* CCS(=O)(=O)c1cccc(-c2ccc(OCC#N)c3[nH]c4ncc(C)cc4c23)c1 | < 4 nM
* CCS(=O)(=O)c1cccc(-c2cc(CN(C)C)cc3[nH]c4ncc(C)cc4c23)c1 | > 13 nM
* Cc1cnc2[nH]c3c(C)c(C(=O)NC4CCN(C)CC4)cc(-c4cccc(C(=O)NC5CC5)c4)c3c2c1 | > 13 nM
* CCS(=O)(=O)c1cccc(-c2cc(CN3CCOCC3)cc3[nH]c4ncc(C)cc4c23)c1 | > 13 nM

The value of IC50 measured for the compound `CCS(=O)(=O)c1cccc(-c2cc(C(=O)NCCN3CCNCC3)c(C)c3[nH]c4ncc(C)cc4c23)c1` turned out to be > 13 nM

----------
- system-under-test: Aurora B/INCENP (Homo sapiens)
- assay-explanation: Determination of inhibition of AIK: Aurora B/INCENP direct fluorescence polarization (IMAP) assay
- experimental-setup: 10 uM ATP, 0.8 nM Aurora B/INCENP; values given as bins; read-out: IC50 of Exemplified Compounds Against AIK B
pIC50: −log10 of the molar value.
attribute-measured: pIC50

// worked examples, pIC50 included
• Cc1cnc2[nH]c3c(OCCCN(CCO)CC(F)F)ccc(-c4cccc(S(=O)(=O)C5CC5)c4)c3c2c1 = < 7.89
• CCN(CCO)CCCOc1ccc(-c2cccc(S(=O)(=O)C3CC3)c2)c2c1[nH]c1ncc(Cl)cc12 = > 8.40
• CCS(=O)(=O)c1cccc(-c2cc(C(=O)NC3CCN(C(C)C)CC3)c(C)c3[nH]c4ncc(C)cc4c23)c1 = 7.89 to 8.07

Now look at this one.
Hey, Aurora B/INCENP (Homo sapiens) data for `CCS(=O)(=O)c1cccc(-c2ccc(OCCN3CCC(O)CC3)c3[nH]c4ncc(Cl)cc4c23)c1` : pIC50 came out at 7.89 to 8.07

----------
- system-under-test: Aurora B/INCENP (Homo sapiens, UniProt Q96GD4)
- assay-explanation: Determination of inhibition of AIK: Aurora B/INCENP direct fluorescence polarization (IMAP) assay
- experimental-setup: 10 uM ATP, 0.8 nM Aurora B/INCENP; values given as bins; read-out: IC50 of Exemplified Compounds Against AIK B
attribute-measured: IC50

// worked examples, IC50 included
• CCS(=O)(=O)c1cccc(-c2cc(C(=O)NCCOCC(F)(F)F)c(C)c3[nH]c4ncc(C)cc4c23)c1 = 8.6 to 13 nM
• CONC(=O)c1cccc(-c2ccc(OC)c3[nH]c4ncc(C)cc4c23)c1 = > 13 nM
• CCS(=O)(=O)c1cccc(-c2cnc(OC[C@@H](C)OC(=O)[C@H](C)N)c3[nH]c4ncc(C)cc4c23)c1 = 8.6 to 13 nM

Now look at this one.
The value of IC50 measured for the molecule `CCS(=O)(=O)c1cccc(-c2cc(C(=O)NC[C@@H](C)O)c(C)c3[nH]c4ncc(C)cc4c23)c1` turned out to be 8.6 to 13 nM

----------
Measured pIC50 by item
- system-under-test: Aurora B/INCENP (Homo sapiens)
- assay-explanation: Determination of inhibition of AIK: Aurora B/INCENP direct fluorescence polarization (IMAP) assay
- experimental-setup: 10 uM ATP, 0.8 nM Aurora B/INCENP; values given as bins; read-out: IC50 of Exemplified Compounds Against AIK B
pIC50: −log10 of the molar value.

// worked examples, pIC50 included
- CCS(=O)(=O)c1cccc(-c2ccc(OCCCc3cccnc3)c3[nH]c4ncc(C)cc4c23)c1 [Compound 414]: 7.89 to 8.07
- CCS(=O)(=O)c1cccc(-c2ccc(OCC3CCCCO3)c3[nH]c4ncc(C)cc4c23)c1 (centres unmarked) [Compound 423]: 7.89 to 8.07
- CCN(CCCOc1ccc(-c2cccc(S(=O)(=O)CC)c2)c2c1[nH]c1ncc(Cl)cc12)CCOP(=O)(O)O [Compound 294]: > 8.40

Hey, Aurora B/INCENP (Homo sapiens) data for Cc1cnc2[nH]c3c(OCC4CCN(C)CC4)ccc(-c4cccc(C(=O)NC5CC5)c4)c3c2c1 [Compound 178] : pIC50 came out at < 7.89

Hey, Aurora B/INCENP (Homo sapiens) data for CCS(=O)(=O)c1cccc(-c2c(Cl)cnc3[nH]c4c(OC)cccc4c23)c1 [Compound 464] : pIC50 came out at 8.07 to 8.25

Hey, Aurora B/INCENP (Homo sapiens) data for CCS(=O)(=O)c1cccc(-c2ccc(OC[C@H](C)O)c3[nH]c4ncc(C)cc4c23)c1 [Compound 234] : pIC50 came out at 8.26 to 8.40

Hey, Aurora B/INCENP (Homo sapiens) data for CCS(=O)(=O)c1cccc(-c2cc(C(=O)NCCCN(C)C)c(C)c3[nH]c4ncc(C)cc4c23)c1 [Compound 115] : pIC50 came out at 7.89 to 8.07

Hey, Aurora B/INCENP (Homo sapiens) data for CCS(=O)(=O)c1cccc(-c2ccc(OCCN(C)C)c3[nH]c4ncc(Cl)cc4c23)c1 [Compound 222] : pIC50 came out at 8.26 to 8.40

Hey, Aurora B/INCENP (Homo sapiens) data for CCS(=O)(=O)c1cccc(-c2cnc(OC[C@H](O)CO)c3[nH]c4ncc(C)cc4c23)c1 [Compound 56] : pIC50 came out at > 8.40

Hey, Aurora B/INCENP (Homo sapiens) data for CCS(=O)(=O)c1cccc(-c2ccc(OCCCN(C)C)c3[nH]c4ncc(C)cc4c23)c1 [Compound 206] : pIC50 came out at 8.26 to 8.40

Hey, Aurora B/INCENP (Homo sapiens) data for CCS(=O)(=O)c1cccc(-c2ccc(OCCCN3CCOCC3)c3[nH]c4ncc(C)cc4c23)c1 [Compound 440] : pIC50 came out at < 7.89

Hey, Aurora B/INCENP (Homo sapiens) data for CCS(=O)(=O)c1cccc(-c2cc(NC(=O)C3CCN(C(C)=O)CC3)c(OC)c3[nH]c4ncc(C)cc4c23)c1 [Compound 243] : pIC50 came out at 7.89 to 8.07

Hey, Aurora B/INCENP (Homo sapiens) data for CCS(=O)(=O)c1cccc(-c2cnc(OCC3CCN(C)CC3)c3[nH]c4ncc(Cl)cc4c23)c1 [Compound 72] : pIC50 came out at > 8.40

Hey, Aurora B/INCENP (Homo sapiens) data for Cc1cnc2[nH]c3c(OCCCN(CCO)CC(F)(F)F)ccc(-c4cccc(S(=O)(=O)C5CC5)c4)c3c2c1 [Compound 339] : pIC50 came out at < 7.89

Hey, Aurora B/INCENP (Homo sapiens) data for CCN(CCCOc1ccc(-c2cccc(S(=O)(=O)C3CC3)c2)c2c1[nH]c1ncc(C)cc12)CCOP(=O)(O)O [Compound 272] : pIC50 came out at 8.07 to 8.25

Hey, Aurora B/INCENP (Homo sapiens) data for CCS(=O)(=O)c1cccc(-c2cc(C(=O)OC)c(Br)c3[nH]c4ncc(C)cc4c23)c1 [Compound 148] : pIC50 came out at 8.26 to 8.40

Hey, Aurora B/INCENP (Homo sapiens) data for CCS(=O)(=O)c1cccc(-c2cc(C(=O)N(C)C)c(C)c3[nH]c4ncc(C)cc4c23)c1 [Compound 92] : pIC50 came out at 8.07 to 8.25

Hey, Aurora B/INCENP (Homo sapiens) data for Cc1cnc2[nH]c3c(OC[C@H](CO)CN(C)C)ccc(-c4cccc(S(=O)(=O)C5CC5)c4)c3c2c1 [Compound 401] : pIC50 came out at > 8.40

Hey, Aurora B/INCENP (Homo sapiens) data for CCS(=O)(=O)c1cccc(-c2cnc(C(N)=O)c3[nH]c4ncc(C)cc4c23)c1 [Compound 50] : pIC50 came out at 8.07 to 8.25

Hey, Aurora B/INCENP (Homo sapiens) data for CCS(=O)(=O)c1cccc(-c2cc(C(=O)NCCCN(C)C)cc3[nH]c4ncc(C)cc4c23)c1 [Compound 143] : pIC50 came out at < 7.89

Hey, Aurora B/INCENP (Homo sapiens) data for CNS(=O)(=O)c1cccc(-c2ccc(OCC3CCN(C)CC3)c3[nH]c4ncc(C)cc4c23)c1 [Compound 180] : pIC50 came out at 7.89 to 8.07

Hey, Aurora B/INCENP (Homo sapiens) data for Cc1cnc2[nH]c3c(OC[C@H]4CN(C)CCO4)ccc(-c4cccc(S(=O)(=O)C5CC5)c4)c3c2c1 [Compound 371] : pIC50 came out at > 8.40

Hey, Aurora B/INCENP (Homo sapiens) data for CCS(=O)(=O)c1cccc(-c2cc(C(=O)N3CCC3)c(C)c3[nH]c4ncc(C)cc4c23)c1 [Compound 97] : pIC50 came out at < 7.89
